# Measurement Protocol: protein stability index of a GFP-peptide fusion (yeast GPS) (PSI 1-4); higher = more stable; sorted into four equal gates, so the index is relative within each strain
# Conditions: pdr5∆

{"columns": ["Sequence Code", "protein stability index"],
 "data": [
  ["SLTTVWAEHLSDEVKRR [RPL3]", 2.85],
  ["LTTQFVTDKYTAKKTNR [YDL088C/ASM4]", 2.83],
  ["EVQRILIELLTQMDGFD [RPT3]", 2.08],
  ["SLSDEVMRNEIRITSLQ [SIR4]", 2.48],
  ["IDATLKEELLRDGVLTV [RRP45]", 1.92],
  ["LGRLVKAGKITTIEEIF [RPS2]", 2.29]
]}

----------
# Measurement Protocol: protein stability index of a GFP-peptide fusion (yeast GPS) (PSI 1-4); higher = more stable; sorted into four equal gates, so the index is relative within each strain
# Conditions: san1∆
Overview of recorded protein stability index for various sequences

{"columns": ["Sequence Code", "protein stability index"],
 "data": [
  ["SNTTTQIQFTPLIKKIK [SMC3]", 2.71],
  ["STAFVPTIEYVQCPTVI [ARP9]", 1.71],
  ["SKNAQFICTTFRTDMLQ [SMC3]", 1.5],
  ["NANTVFAGSNNQPHQSQ [YOR098C/NUP1]", 2.89],
  ["RERQVNEKLADLGLEKE [RPC53]", 3.06],
  ["FYMLNAGIRPKFILALN [RPN1]", 1.78],
  ["EVNISSLDAREANFDLI [RPC40]", 3.17],
  ["RKEPPATVEECVKLTVR [PRE6]", 1.7],
  ["EHKQLVAEIVQNVISLG [RPC82]", 2.16],
  ["YVLYAKIVVLSRTGPVF [RRP43]", 1.11],
  ["FQQQQQQQQQQQQPQPQ [PGD1]", 2.46],
  ["NKLTILGRDYPIEVDEE [IRR1]", 2.38],
  ["KLTVCFDDILKVGAEMM [MED2]", 1.89],
  ["FNRENKVSPADAAKKAL [RPS26A]", 3.17],
  ["MAPNTSRKQKVIKTLTV [RPL22B]", 2.6],
  ["AEDVALNEQVKKFFLNN [NAS6]", 2.11],
  ["NADLDVKDELMFSPLVD [RPO21]", 3.15],
  ["GLFGNKPALGSLGSSST [YGR119C/NUP57]", 2.77],
  ["DVPAYNVTSFMPFWKFF [SRB8]", 1.5],
  ["IKIFELKLPADATTWRY [IRR1]", 2.26],
  ["NGGSEEEITCALDYLIP [MED7]", 3.44],
  ["PVIDTQIANEFNTQQGI [YDL116W/NUP84]", 2.79],
  ["IAINFTVNHSEKFPNDV [RPP1]", 2.95],
  ["KKTKFLSPSGHKTFLVA [RPL32]", 1.44],
  ["ATGISGSVSEETELFEP [ECM29]", 3],
  ["EAAKLLVDSLATFTSIE [RPN7]", 3.24]
]}

----------
# Measurement Protocol: protein stability index of a GFP-peptide fusion (yeast GPS) (PSI 1-4); higher = more stable; sorted into four equal gates, so the index is relative within each strain
# Conditions: pdr5∆
Assay Readout: protein stability index

{"columns": ["Sequence Code", "Value Reported"],
 "data": [
  ["ETKWDDADEKSSNLYET [YJR042W/NUP85]", 3.22],
  ["AEEFDFNVPVVSKQLGN [YAR002W/NUP60]", 1.35],
  ["KKVQALQSDKNFLDNCL [ITC1]", 2.83],
  ["HGQLKLSIQYMIQKVME [RPN5]", 2.73],
  ["KRAEKKAKERLQALKAN [SNF2]", 2.6],
  ["DTKDALSTRELAGKVGS [RPC53]", 2.27],
  ["LRKLKKMNNKPERFMVF [RPC53]", 3.35],
  ["YYVPYSKLMPVLKSSVY [RPC82]", 1.85],
  ["QPLFSTVPEYLKTADNR [PGD1]", 2.6],
  ["PKSTLDNWRREFLKWTP [ISW2]", 3.15],
  ["SNIELAFSSVEHIIRDV [COB]", 2.78],
  ["SMINNSNQAVGQTWNFP [SRB8]", 3.01],
  ["WGHPTRMLLNLCKSATT [BRR2]", 1.55],
  ["NSSNYAELFNNDIKLFV [PRP8]", 2.48],
  ["LGKYEFSKILPAALDGL [ESC2]", 2.67],
  ["EISRLKTSLSIKVENLN [SMC2]", 2.55],
  ["PCLRKYEEFRDVAIENN [RRP43]", 2.82],
  ["VFPSSILDITDEELVSH [RPP0]", 2.94],
  ["VEGISEVQARKSKSVSF [RPT5]", 3.49],
  ["AVLSYYKVDAEGKVTKL [RPS31]", 2.99],
  ["EIPTQIYRTTRQDGSYT [ARP9]", 3.17],
  ["EGNQIIVFVHSRKETSR [BRR2]", 2.28],
  ["MVMAGSKGSFINIAQMS [RPO21]", 1.67],
  ["TQTGQNTGPSTGGLFGA [YGL172W/NUP49]", 3.34],
  ["GADVTNTTQDNGGDKEL [YCS4]", 3.19],
  ["GTNNISQHGQGNNPSWV [YDL088C/ASM4]", 3.39],
  ["KKVNYKVTSYDITGDIR [ISW2]", 2.51],
  ["ANAAKRAEAKAQGVAVQ [RPL21A]", 1.96],
  ["QGNYVTEDIREGDQAEV [YMR129W/POM152]", 3.32],
  ["LYQLVDIRDSSCQGNVI [YMR129W/POM152]", 3.12],
  ["LNSMEKDRISHEVVQDD [PCI8]", 2.69],
  ["SIWGNGYSGYGNGITNT [SNF5]", 3.4],
  ["VMDTIQEQITLYDHWDK [SSN8]", 2.96],
  ["RAASVGSLKLIELLCGL [NAS6]", 2.13],
  ["FVPVPSLAGFHKVQTKL [RPS7A]", 2.71],
  ["VLTHESLHRQQQQQQQQ [DLS1]", 2.9],
  ["LIVIDVVEGVTFVVEQL [SNU114]", 1.92],
  ["KIPLPEVHDLIGFITSG [POP1]", 1.66],
  ["YNGRGARERKTATYNDN [SNF2]", 2.54]
]}

----------
# Measurement Protocol: protein stability index of a GFP-peptide fusion (yeast GPS) (PSI 1-4); higher = more stable; sorted into four equal gates, so the index is relative within each strain
# Conditions: san1∆
Overview of recorded protein stability index for various sequences

{"columns": ["Sequence Code", "protein stability index"],
 "data": [
  ["GTILSSAGDDGKVRLWK [YGL100W/SEH1]", 3.49],
  ["GNIFADLLPNSFAKLVP [SMC2]", 2.58],
  ["SEAKRTKFSNPAIPPVI [BRR2]", 2.45],
  ["EGLTYKYPARRIHTNDN [SSN3]", 2.86]
]}

----------
Overview of recorded protein stability index for various sequences
# Measurement Protocol: protein stability index of a GFP-peptide fusion (yeast GPS) (PSI 1-4); higher = more stable; sorted into four equal gates, so the index is relative within each strain
# Conditions: doa10∆

{"columns": ["Sequence Code", "protein stability index"],
 "data": [
  ["EESIKIYPLIKPGSTVM [UBP6]", 2.94],
  ["ATVVSTNHSAAASTPTT [PGD1]", 2.91],
  ["AKRHRKILRDNIQGITK [HHF1]", 3.01],
  ["DVPGRELKYELIAEESE [RPB2]", 3.07],
  ["KLSKVQLYEDLCRYEDT [MED4]", 2.88],
  ["RTNNVPMIKAEETPSKT [NUT1]", 2.9],
  ["DAENEWNVEKFKKDFEV [RPC40]", 1.39],
  ["GSSKPAFSFGAKPDEKK [YJL041W/NSP1]", 3.19],
  ["PDDDKIVPLTEGDIQVL [RPT1]", 3.21],
  ["DVEENRSEFIESLLNWI [YJR042W/NUP85]", 3.19],
  ["ADCQAELTKTKSSLYSA [YIL149C/MLP2]", 2.6],
  ["MSTDSIVKASNWRLVEV [RPL14A]", 2.82],
  ["LIQLQNIFKAEMDSVSK [CSN9]", 2.55],
  ["LVTKILPLKKNEIIGDR [YCG1]", 2.88],
  ["VFYRMQQLRRALPDVVV [RPO31]", 1.83],
  ["VGSPLTVSILQESSSLR [POP8]", 3.21],
  ["FSSPAALMKTLIKFVDL [NUT1]", 1.98],
  ["MEKKKSSSLSLESFMKS [SNM1]", 1.84],
  ["KRVVVPQALRVLRLKPG [RPL16A]", 3.05],
  ["KMLMNLHKEQWQSGLKM [RPN11]", 2.14],
  ["ALDGDLIELLEKLDVSR [YCG1]", 3.27],
  ["KGIAKEHAKWGPAAAIE [RPB3]", 3.11],
  ["PDDMVEINSVGNPGLPQ [ITC1]", 2.85],
  ["GQFVTLGCTLVTLLANV [RMP1]", 2.8],
  ["GRKHVAALRTVKSLVDN [RPL9A]", 2.99],
  ["DSNMDSISSVVSEDLLD [RPN4]", 2.3],
  ["ISDIPYVISLSYTDAQD [YMR129W/POM152]", 2.16],
  ["LLERTREIHNEAESQLR [FAS2]", 2.97],
  ["RNAEFKVSKNSTSFKNP [YMR153W/NUP53]", 2.79],
  ["FSERAAMFAALQQKQQQ [SWI1]", 1.7],
  ["VTDDPIWMRGHGTYFLD [RRP4]", 3.22],
  ["GDVKNMEDVKIQKEEEP [SWI3]", 3.45],
  ["QREAAAEYAQLLAKRLS [RPS6A]", 1.78],
  ["PVDITMMENYQNISPVY [PRP8]", 2.28],
  ["GGGAARRQAVDVSPLRR [RPS5]", 2.28],
  ["RKCQFRTPDSISVNSSS [POP1]", 2.44],
  ["IVNVLSKCLNLISDSNI [SWI3]", 2.05],
  ["PGEFVTAIAHSIREQVH [SNF5]", 2.27],
  ["TLLESNLCKIIEPFECV [RPN6]", 2.26],
  ["IQIDEETENSESIASSN [MCD1]", 2.4],
  ["VGKQIVNIPSFMVRLDS [RPS9A]", 2.59],
  ["ENYDAKIELEKKEKWAR [YIL149C/MLP2]", 3.2],
  ["LKVTKKHGAKKVAKRTK [RPL27A]", 3.37],
  ["AKKNNFIEDLAPEQQVQ [UBP6]", 2.81],
  ["LLRSVLVLLELVSSGDR [YML103C/NUP188]", 1.84],
  ["ILEDTATMSVFLQRIDF [RRI2]", 2.78],
  ["EGNQIIVFVHSRKETSR [BRR2]", 2.01],
  ["MAHRVKVIPYSTFRLNL [RPO21]", 1.87],
  ["NAQSKLSLTLNTHYHAD [SNF2]", 2.76],
  ["VKIRATGGTRTKTPGPG [RPS14A]", 3.21]
]}
